Tested on: A375 melanoma
test method notes: in vitro cytotoxicity (antiproliferative activity) on A375 melanoma line
Type: cell-based, human
study conditions: Homo sapiens, A-375; melanoma (A375); text b219; read-out: IC50
quantity: IC50 (nM)
Report the value in nM with no unit label.

Would you kindly share the measured IC50 for CNc1nc2ccccc2n2cc(-c3cccc(OC)c3)nc12 ? 18

---

Overview of recorded half-life for various compounds
test method notes: in vivo
study conditions: rat, iv, 5 mg/kg
Note: unit h is implicit; provide only the numeric part.

smiles entry	quantitative result
CNc1nc2ccccc2n2c(-c3cccc(OC)c3)cnc12	1.76

Look up half-life: CNc1nc2ccccc2n2c(CCc3ccccc3)cnc12 2.6
